Reported composite z-score values are given for each entry in this list.
# target_of_assay: Follistatin (Homo sapiens) (UniProt P19883)
# Sequence (P19883 whole entry, looked up): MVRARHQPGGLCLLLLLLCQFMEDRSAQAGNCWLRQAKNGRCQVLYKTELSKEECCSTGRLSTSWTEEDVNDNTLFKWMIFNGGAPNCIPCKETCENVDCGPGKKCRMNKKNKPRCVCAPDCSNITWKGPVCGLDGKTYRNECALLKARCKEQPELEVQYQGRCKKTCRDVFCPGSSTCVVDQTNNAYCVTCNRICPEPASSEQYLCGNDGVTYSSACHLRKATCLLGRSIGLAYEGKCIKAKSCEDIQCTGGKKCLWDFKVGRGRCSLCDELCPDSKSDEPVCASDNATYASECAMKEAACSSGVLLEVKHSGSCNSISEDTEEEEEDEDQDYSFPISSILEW
# test: follistatin binders on small-molecule microarrays, primary screen, biochemical, small-molecule microarray, 635/667 nm fluorescence (AID 1132)
# conditions: FST binding, 635 nm fluorescence, higher = more signal
Would you mind answering with just the numeric figure?

NCCCCCCNC(=O)[C@@H]1C[C@@H]2C(=O)N[C@@H](CCCCN)C(=O)N2[C@@H]1c1cccc(OCCO)c1 : 0.877
C=CCC(OC(C)=O)[C@@H]1[C@@H](N(Cc2cc3ccccc3o2)C(=O)c2ccc(-c3ccccc3)cc2)c2cc(OCCCO)ccc2N1C(=O)c1ccc2ccccc2c1 (some centres undefined) : 0.874
CCCCCCc1nc(C2CC2)cc2c1[Si](C(C)C)(C(C)C)OC2 : -0.706
CCOC(=O)C[C@H]1[C@H](OC(=O)c2cc3ccccc3oc2=O)[C@@H](NC(=O)c2ccc(-c3ccccc3)cc2)c2cc(OCCCO)ccc2N1C(=O)c1ccccc1 : 1.34

The recorded composite z-score for entry C[C@@H]1NC(=O)[C@@]23C(=O)N[C@@H](Cc4ccccc4)C2[C@H](C)[C@@]2(C)O[C@H]2C3/C=C/C/C=C\CNC(=O)[C@@H]2CCCN2C1=O (some centres undefined) equals 0.148

The recorded composite z-score for entry `NCCCCCNC(=O)[C@@H]1C[C@@H]2C(=O)NCC(=O)N2[C@@H]1c1cccc(OCCO)c1` equals 1.45

The recorded composite z-score for entry `O=C(NCC(F)(F)F)[C@@H]1c2ccccc2C(=O)N(Cc2ccc(OC(F)(F)F)cc2)[C@H]1c1ccc(CO)cc1` equals 1.02

The recorded composite z-score for entry `COCCOC(=O)N1C(=O)[C@@]2(c3cc(C#CCCO)ccc31)[C@H](c1ccccc1OCCO)N1[C@H](c3ccccc3)[C@H](c3ccccc3)OC(=O)[C@H]1[C@@H]2C(=O)Nc1nc2ccccc2s1` equals 1.07

The recorded composite z-score for entry `NC(=O)NCC#Cc1ccc2c(c1)[C@]1(C(=O)N2)[C@H](C(=O)O)[C@H]2C(=O)O[C@H](c3ccccc3)[C@H](c3ccccc3)N2[C@@H]1c1ccc(OCCO)cc1` equals 1.18

----------
Reported composite z-score values are given for each entry in this list.
# Tested on: wheat germ agglutinin (Triticum aestivum), Alexa647-labelled
# test: wheat germ agglutinin binders on compound microarrays, profiling panel, artefact control for SMM control-protein annotation, biochemical, small-molecule microarray, 635/667 nm fluorescence (AID 1140);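 further: score merges 667 nm feature emission with signal to noise over triplicate slides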
# conditions: WGA-A647 binding, 635 nm fluorescence, higher = more signal

Sample records with composite z-score:
CC(C)C[C@@H]1NC(=O)[C@@H]2C[C@H](C(=O)NCCCCCN)[C@H](c3ccc(O)cc3)N2C1=O : 0.899
COCCOC(=O)N1C(=O)[C@@]2(c3cc(C#CCCO)ccc31)[C@H](c1ccccc1OCCO)N1[C@H](c3ccccc3)[C@H](c3ccccc3)OC(=O)[C@H]1[C@@H]2C(=O)Nc1nc2ccccc2s1 : 1.24
Cc1ccc(S[C@]2(C(=O)O)CC(=O)N(Cc3cc(C(F)(F)F)cc(C(F)(F)F)c3)[C@@H]2c2ccc(CO)cc2)cc1 : -1.31
COC(=O)C(CC#Cc1ccc2c(c1)[C@]1(C(=O)N2)[C@H](c2ccccc2OCCO)N2[C@H](c3ccccc3)[C@H](c3ccccc3)OC(=O)[C@H]2[C@@H]1C(=O)NC[C@H](O)c1ccccc1)C(=O)OC : 1.14
CCOc1cc(C(O)C2C=CC3C(=O)N(C)C(=O)C3N2Nc2ccccc2)ccc1O (configuration not stated) : 0.974

The recorded composite z-score for entry `COc1ccccc1CN1C(=O)c2ccccc2[C@@]2(Cc3ccccc3N(CC(F)(F)F)C2=O)[C@@H]1c1ccc(CO)cc1` equals -0.0716

The recorded composite z-score for entry `O=C1N(Cc2ccccc2)c2ccccc2[C@@H]2OC(c3ccc(OCCCO)cc3)=N[C@]12Cc1ccccc1` equals 0.849

The recorded composite z-score for entry `COC(=O)[C@@]1(Cc2ccc(OC)cc2)[C@H]2c3cc(C(=O)N4CCCC4)n(Cc4cccc5ccccc45)c3C[C@H]2CN1C(=O)c1ccccc1` equals 0.396

The recorded composite z-score for entry C[C@@H]1NC(=O)[C@@]23C(=O)N[C@@H](Cc4ccccc4)C2[C@H](C)[C@@]2(C)O[C@H]2C3/C=C/C/C=C\CNC(=O)[C@@H]2CCCN2C1=O (some centres not stated) equals -0.628

The recorded composite z-score for entry `COC(=O)[C@@]1(Cc2ccccc2)[C@H]2c3cc(C(=O)N(C)C)n(Cc4c(CO)[nH]cc(C)c4=O)c3C[C@H]2CN1C(=O)c1ccccc1` equals 1

----------
# test: binders of probe aHhip on microarray, primary screen, stem cell growth factor project, biochemical, small-molecule microarray, fluorescence 635/667 (AID 1087);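 further: score merges spot fluorescence at 667nm with spot signal to noise ratio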
# conditions: higher = more signal
Heads up, the class ranges for composite z-score are 1: < -0.1; 2: ≥ -0.1 and < -0.02; 3: ≥ -0.02

CCCC[C@@H]1C[C@H]1[C@@H](NC(=O)Cc1ccccc1)c1ccc(-c2ccccc2)cc1 : 2

Query: Please let me know in which category the item CCOc1cc(C(O)C2C=CC3C(=O)N(C)C(=O)C3N2Nc2ccccc2)ccc1O (stereo not drawn) belongs.
Result: 3

Query: Please let me know in which category the item `COCCCNC(=O)[C@@]1(Sc2ccc(C)cc2)CC(=O)N(C2CCCCC2)[C@@H]1c1ccc(CO)cc1` belongs.
Result: 1

Query: Please let me know in which category the item `Cc1ccc(S[C@]2(C(=O)O)CC(=O)N(C3Cc4ccccc4C3)[C@@H]2c2ccc(CO)cc2)cc1` belongs.
Result: 1

Query: Please let me know in which category the item `Cc1ccc(S[C@]2(C(=O)NCC(F)(F)F)CC(=O)N(Cc3ccccc3)[C@@H]2c2ccc(CO)cc2I)cc1` belongs.
Result: 1

Query: Please let me know in which category the item `O=C1O[C@H](c2ccccc2)[C@H](c2ccccc2)N2[C@H]1[C@@H](C(=O)Nc1nc3ccccc3s1)[C@]1(C(=O)Nc3ccc(C#CCCO)cc31)[C@H]2c1ccc(O)cc1` belongs.
Result: 2

----------
Reported z-score values are given for each entry in this list.
# test: E. coli acrAB mutant growth effects, primary screen, E. coli filamentation inducers, strain DRC39, OD650, 24 h (AID 1178);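 further: growth measured as culture turbidity by optical density at 650 nm; test concentration not given here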
# conditions: higher = more signal, called active from +8 up or from −8 down
Would you mind answering with just the numeric figure?

Sample records with z-score:
C=C[C@@H](OC)[C@H](OC(=O)Nc1ccc(SC)cc1)c1ccc(O)c(F)c1 : -0.881
COCCOC(=O)N1C(=O)[C@@]2(c3cc(C#CC4(O)CCCCCC4)ccc31)[C@H](c1ccc(O)cc1)N1[C@H](c3ccccc3)[C@H](c3ccccc3)OC(=O)[C@H]1[C@@H]2C(=O)NC[C@H](O)c1ccccc1 : 0.157
CCC(CC)C(O)C1C=CC2C(=O)N(c3ccccc3)C(=O)C2N1Nc1ccc(C(C)C)cc1 (centres undefined) : -0.171

Field: next compound
The recorded z-score for entry `CN(C)C(=O)[C@@]1(CCS(=O)(=O)c2ccccc2)N=C(c2ccc(OCCCO)cc2)O[C@H]1c1ccccc1` equals -1.47

----------
# test: basal MM1S mitochondrial membrane potential changes, profiling panel, cell-based, JC-1 fluorescence, 24 h, 100 nL compound (AID 1170); further: test concentration not given here
# conditions: higher = more signal
Reported z-score values are given for each entry in this list.
Would you mind answering with just the numeric figure?

Sample records with z-score:
C=CC[C@]1(C(=O)NCCN2CCOCC2)N=C(c2ccc(OCCCO)cc2)O[C@H]1c1ccccc1CN=[N+]=[N-] : -0.244
COCCCNC(=O)[C@@]1(Sc2ccc(C)cc2)CC(=O)N(C2CCCCC2)[C@@H]1c1ccc(CO)cc1 : 0.2
COC(=O)[C@@]1(Cc2ccccc2N=[N+]=[N-])N=C(c2ccc(OCCCO)cc2)O[C@H]1c1ccccc1N=[N+]=[N-] : -2.92

The recorded z-score for entry CN1C(=O)C2C=CC(C(O)c3ccccn3)N(N(c3ccccc3)c3ccccc3)C2C1=O (centres undefined) equals -0.468

----------
# target_of_assay: NADPH oxidase 2 (Homo sapiens) (UniProt P04839)
# Sequence (P04839 whole entry, looked up): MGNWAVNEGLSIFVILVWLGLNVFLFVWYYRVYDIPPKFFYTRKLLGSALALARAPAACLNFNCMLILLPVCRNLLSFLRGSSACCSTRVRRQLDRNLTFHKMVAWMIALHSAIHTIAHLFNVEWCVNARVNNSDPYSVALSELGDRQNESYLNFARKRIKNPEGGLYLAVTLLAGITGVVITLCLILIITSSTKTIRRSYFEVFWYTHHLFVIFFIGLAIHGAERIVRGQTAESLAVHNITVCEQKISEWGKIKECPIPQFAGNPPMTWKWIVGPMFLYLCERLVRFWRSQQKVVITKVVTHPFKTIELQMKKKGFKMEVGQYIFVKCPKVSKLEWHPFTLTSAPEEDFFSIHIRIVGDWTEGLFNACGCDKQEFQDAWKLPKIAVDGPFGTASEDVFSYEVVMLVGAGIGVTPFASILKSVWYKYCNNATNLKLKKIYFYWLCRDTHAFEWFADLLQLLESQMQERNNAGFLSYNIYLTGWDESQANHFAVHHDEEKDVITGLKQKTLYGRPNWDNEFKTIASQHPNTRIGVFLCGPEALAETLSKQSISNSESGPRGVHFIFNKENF
# test: NOX2-dependent H2O2 signal modulators, primary screen, NOX inhibitor project, cell-based, HEK293-NOX2, PMA-stimulated, Amplex Red fluorescence (AID 1159); further: test concentration not given here
# conditions: 45 min, higher = more signal, called active from +8 up or from −8 down
observation_type: z-score
Would you mind answering with just the numeric figure?

Sample records with z-score:
CCOC(=O)C1=C[C@@H](c2ccccc2)N(S(=O)(=O)c2ccc(C)cc2)[C@H]1c1ccccc1Cl : 0.574
CCOC(=O)C[C@H]1[C@H](OC(=O)c2cc3ccccc3oc2=O)[C@@H](NC(=O)c2ccc(-c3ccccc3)cc2)c2cc(OCCCO)ccc2N1C(=O)c1ccccc1 : -1.47
CO[C@H]1O[C@H](CO)[C@@H](OC(=O)Nc2ccc3c(c2)OCO3)[C@H](OC(=O)c2cc3ccccc3[nH]2)[C@H]1OC(=O)c1cc2ccccc2[nH]1 : -3.78
COCCCNC(=O)[C@@]1(Cc2ccccc2N=[N+]=[N-])COC(c2ccc(OCCCO)cc2)=N1 : -1.62
O=C1O[C@H](c2ccccc2)[C@H](c2ccccc2)N2[C@H]1[C@@H](C(=O)Nc1nc3ccccc3s1)[C@]1(C(=O)Nc3ccc(C#CCCO)cc31)[C@H]2c1ccc(O)cc1 : 1.08
CCCCCCCCCCC(O)C1C=CC2C(=O)N(C)C(=O)C2N1Nc1ccc([N+](=O)[O-])cc1[N+](=O)[O-] (configuration not stated) : 0.402

Field: next compound
The recorded z-score for entry CC(C)(C)N1CC=CC23O[C@@H]4C=CCCOC(=O)C4[C@H]2C(=O)N(CCO)[C@@H]3C1=O (some centres not stated) equals 1.31
